tested on: DNA; assay: Stabilization of dsBE12 oligonucleotide (unknown origin) assessed as drug-DNA adduct formation at 5 to 50 uM incubated for 4 hrs in presence of formaldehyde using [gamma-32P]ATP by phosphorimaging analysis relative to control; type: nucleic-acid assay
Active and inactive are the calls of the source. The rule behind the calls is not given here.
ATTRIBUTE_MEASURED: Activity

Below, 4 compounds whose answers are already recorded.
NCCCCCNc1ccc(NCCCCCN)c2c1C(=O)c1c(O)ccc(O)c1C2=O :: 20%
NCCNc1ccc(NCCN)c2c1C(=O)c1c(O)ccc(O)c1C2=O :: 30%
O=C1c2c(O)ccc(O)c2C(=O)c2c(NCCNCCO)ccc(NCCNCCO)c21 :: Active
NCCNCCNc1ccc(NCCNCCN)c2c1C(=O)c1c(O)ccc(O)c1C2=O :: < 80%

Kindly consider the entry below.
Give its Activity value. Item: NCCNCCNc1ccc(F)c2c1C(=O)c1c(O)ccc(O)c1C2=O
Active

* * *

tested on: DNA; test: Binding affinity to dsBE45 oligonucleotide (unknown origin) assessed as drug-DNA adduct formation at 5 to 50 uM incubated for 4 hrs in presence of formaldehyde using [gamma-32P]ATP by phosphorimaging analysis; assay type: nucleic-acid assay
Activity calls are given as the source filed them. The calls are words filed in the database; no cut-off is given here.
ATTRIBUTE_MEASURED: Activity

NCCCCCNc1ccc(F)c2c1C(=O)c1c(O)ccc(O)c1C2=O :: inactive
NCCNc1ccc(NCCN)c2c1C(=O)c1c(O)ccc(O)c1C2=O :: inactive
NCCCCCNc1ccc(NCCCCCN)c2c1C(=O)c1c(O)ccc(O)c1C2=O :: inactive
